biological target: T1, human CD1d expressed on HEK-293 cells (human, UniProt P15813 20-335; P61769 21-119); test: flow cytometry, HEK-293 cells, 1 µg/ml antibody
T1 construct: also called HEK - CD1d
// values below are reported Fluorescence Intensity Geomean (normalized to background)
Please report the result as a number followed by the unit.

Some binders with known Fluorescence Intensity Geomean (normalized to background) results, for comparison:
110 (VR12112) (antibody, V domains shown, also called OX110; antibody 110) VH: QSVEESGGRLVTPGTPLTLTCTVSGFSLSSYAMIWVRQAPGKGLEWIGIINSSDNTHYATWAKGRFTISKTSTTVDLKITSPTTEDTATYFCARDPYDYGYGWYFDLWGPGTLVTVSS VL: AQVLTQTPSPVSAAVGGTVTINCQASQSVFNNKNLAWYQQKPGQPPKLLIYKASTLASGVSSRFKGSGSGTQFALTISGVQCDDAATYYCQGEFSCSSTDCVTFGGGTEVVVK    1.1 fold over background
111 (VR12113) (antibody, V domains shown, also called OX111) VH: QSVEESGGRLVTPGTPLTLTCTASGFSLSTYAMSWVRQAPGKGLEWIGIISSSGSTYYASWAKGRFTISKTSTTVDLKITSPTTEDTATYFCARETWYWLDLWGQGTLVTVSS VL: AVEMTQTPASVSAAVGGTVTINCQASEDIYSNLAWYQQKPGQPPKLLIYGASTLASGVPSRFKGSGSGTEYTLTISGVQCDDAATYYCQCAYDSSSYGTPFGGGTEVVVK    1.1 fold over background
116 (VR12117) (antibody, V domains shown, also called OX116) VH: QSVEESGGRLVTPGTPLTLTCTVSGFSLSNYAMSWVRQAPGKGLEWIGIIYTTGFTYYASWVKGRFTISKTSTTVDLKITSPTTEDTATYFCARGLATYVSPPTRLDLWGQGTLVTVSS VL: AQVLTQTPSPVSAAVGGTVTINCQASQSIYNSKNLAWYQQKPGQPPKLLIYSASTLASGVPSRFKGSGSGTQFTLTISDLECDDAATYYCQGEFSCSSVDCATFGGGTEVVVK    1 fold over background

Just so you know, measured Fluorescence Intensity Geomean (normalized to background) for 77A (VR11851) (antibody, V domains shown, also called OX77a; antibody 77a) VH: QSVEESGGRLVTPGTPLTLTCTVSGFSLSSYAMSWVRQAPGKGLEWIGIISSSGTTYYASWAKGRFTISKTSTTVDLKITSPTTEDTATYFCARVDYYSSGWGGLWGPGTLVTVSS VL: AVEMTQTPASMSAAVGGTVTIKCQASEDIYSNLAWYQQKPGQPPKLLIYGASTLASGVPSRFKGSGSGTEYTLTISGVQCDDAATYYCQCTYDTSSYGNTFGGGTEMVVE came out at 1 fold over background
